Hi there, I'd appreciate the recorded phosphorylation enrichment for every entry that follows.
- System: Fer (mouse)
- assay-procedure: phosphorylation enrichment, bacterial display (enrichment ratio); higher = better substrate or ligand; peptides without Tyr show the background;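 further: 11-residue human phosphosite peptides and single-mutation variants displayed on the E. coli surface, counted by deep sequencing, each peptide's frequency after selection divided by its frequency in the unselected input library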;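 further: frequency after pTyr selection over input frequency; kinase dosed for 20-30% of maximal phosphorylation in three min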
Reply with just the number.

Tell me measured phosphorylation enrichment for RRNTPYSQTMK [TET2_Y819_S817T] please.
0.512

Tell me measured phosphorylation enrichment for CHRQLYHKCTH [F12_Y58_Y53C] please.
0.491

Please report the measured phosphorylation enrichment for SVVVPSEPPEV [TP53_Y220_Y220S]
0.426

Let me know recorded phosphorylation enrichment for DPEGAYTTRGG [EPHA3_Y779_A777G] , thanks.
0.515

Answer with reported phosphorylation enrichment of KKYPDYIQIAR [SGMS2_Y59_M64R]
0.388

Output phosphorylation enrichment of LPKVSCVKAID [GLRA1_Y307_Y307C]
0.577

Determine its reported phosphorylation enrichment: ETLLYYGYRRS [POR_Y564_C566Y]
0.766

Give the reported phosphorylation enrichment for this sequence. CRIELYRVVES [IGFBP1_Y181]
0.537

Report phosphorylation enrichment, nothing else, for this sequence: FGFPGYQSKHF [TIMP3_Y177_YF]
0.406

Respond only with phosphorylation enrichment recorded for RIVTTYIRERE [DNM2_Y463]
0.649

Recall and state the measured phosphorylation enrichment for AEKPKYQINNI [TJP1_Y1602] .
0.368

Read off the recorded phosphorylation enrichment for PFGQWYESHFA [RPS8_Y113_R110G_YF]
17.7

Dear colleague, please send me the reported phosphorylation enrichment for AATTAYSKPKR [MAP3K7_Y405] when you can.
0.317

State its phosphorylation enrichment: TLQWMYGCDVG [HLA-B_Y123_S121W]
0.566

Indicate its recorded phosphorylation enrichment; the sequence in question is MHDKEYYSVHN [MET_Y1234_Y1230H]
0.411

Using the record for SVVMPYEPPEV [TP53_Y220_V218M] , state its measured phosphorylation enrichment.
0.549

State, in one line, measured phosphorylation enrichment of YSNKLHYQLEQ [PDPR_Y109_Y109H]
0.461

---

- Test system: Fer (mouse)
- assay-procedure: phosphorylation enrichment, bacterial display (enrichment ratio); higher = better substrate or ligand; peptides without Tyr show the background
measurement-label: phosphorylation enrichment
Please reply with the number alone, leaving off any unit.

Note down phosphorylation enrichment recorded for NHRNQYQALKT [CLSPN_Y887_P892T]
0.499

Provide only the value of recorded phosphorylation enrichment for GEDEPYSEPFA [APBA1_Y183_YF]
0.512

Look up phosphorylation enrichment of KFMVGYEMIAQ [GALT_Y339_L342I] and report it.
0.487

---

- assay-system: EPHB1 (UniProt P54762)
- Sequence (P54762 whole entry, looked up): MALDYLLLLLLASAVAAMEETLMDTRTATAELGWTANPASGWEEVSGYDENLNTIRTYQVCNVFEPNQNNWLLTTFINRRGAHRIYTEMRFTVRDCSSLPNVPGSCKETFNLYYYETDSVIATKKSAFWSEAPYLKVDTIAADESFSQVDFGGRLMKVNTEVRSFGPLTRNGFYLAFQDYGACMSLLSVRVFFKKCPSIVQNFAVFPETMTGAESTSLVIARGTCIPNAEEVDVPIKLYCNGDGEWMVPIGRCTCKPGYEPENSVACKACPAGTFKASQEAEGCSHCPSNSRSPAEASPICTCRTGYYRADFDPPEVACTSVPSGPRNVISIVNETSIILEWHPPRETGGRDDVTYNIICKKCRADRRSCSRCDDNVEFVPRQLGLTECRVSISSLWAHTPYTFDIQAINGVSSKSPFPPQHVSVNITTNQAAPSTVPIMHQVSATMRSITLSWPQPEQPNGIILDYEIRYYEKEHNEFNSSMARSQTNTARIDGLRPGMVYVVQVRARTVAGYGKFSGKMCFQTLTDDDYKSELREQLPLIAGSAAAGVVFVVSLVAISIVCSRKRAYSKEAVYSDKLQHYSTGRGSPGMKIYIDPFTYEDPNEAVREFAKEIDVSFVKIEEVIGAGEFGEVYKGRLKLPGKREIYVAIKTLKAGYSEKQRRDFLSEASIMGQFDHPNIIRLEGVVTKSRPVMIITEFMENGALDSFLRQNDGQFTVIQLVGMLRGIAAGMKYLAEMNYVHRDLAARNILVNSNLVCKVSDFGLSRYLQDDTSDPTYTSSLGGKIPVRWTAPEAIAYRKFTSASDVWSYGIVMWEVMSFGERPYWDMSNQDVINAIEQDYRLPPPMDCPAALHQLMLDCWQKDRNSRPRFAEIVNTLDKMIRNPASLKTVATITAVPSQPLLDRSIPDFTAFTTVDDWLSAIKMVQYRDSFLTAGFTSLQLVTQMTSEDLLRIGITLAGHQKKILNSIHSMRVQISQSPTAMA
- assay-procedure: phosphorylation enrichment, bacterial display (enrichment ratio); higher = better substrate or ligand; peptides without Tyr show the background
Returns TRUE if the recorded phosphorylation enrichment is greater than or equal to 0.9, and FALSE otherwise.

Does PVPKTYDMLKA [PKP2_Y108] have a reported phosphorylation enrichment of at least 0.9?
TRUE

Determine whether measured phosphorylation enrichment meets or exceeds 0.9 for ADLAKYICENR [ALB_Y287_Q292R]
FALSE

Could you verify whether the entry SWDKRYCEAGF [ITGA2B_Y197] shows phosphorylation enrichment of no less than 0.9?
FALSE

I'd appreciate it if you could say whether LGSVVYAQSKE [KCNQ2_Y226_H228Q] has phosphorylation enrichment at least equal to 0.9.
TRUE

phosphorylation enrichment >= 0.9 for SPYAVYLFFTF [RPGRIP1_Y826_R827L] ?
FALSE

Is phosphorylation enrichment for DFFDLYGGKKF [PTPN11_Y66_E69K_YF] at or above 0.9?
FALSE

Does the reported phosphorylation enrichment for ADLTEYLSTHF [UQCRC1_Y219_YF] fall at or above the 0.9 mark?
FALSE
